Data provenance is patent US20160257732A1.

SYSTEM_NAME: HA of A/Victoria/3/75 (H3N2) (influenza A virus)
ASSAY: cell-based or functional assay
Catalogue of Neutralization IC50, H3-Vic75 readings, one per entry.
Return type: number; implicit unit µg/mL.

Some entries whose results are on file:
Antibody 10 (antibody, V domains shown) VH: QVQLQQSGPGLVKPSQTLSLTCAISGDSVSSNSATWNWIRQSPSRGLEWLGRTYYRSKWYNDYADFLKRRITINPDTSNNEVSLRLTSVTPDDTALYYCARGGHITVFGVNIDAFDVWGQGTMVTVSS VL: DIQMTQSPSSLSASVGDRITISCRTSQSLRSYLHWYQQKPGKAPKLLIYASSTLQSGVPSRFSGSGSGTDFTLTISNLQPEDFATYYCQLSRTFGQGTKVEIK = 0.91
Antibody 5 (antibody, V domains shown) VH: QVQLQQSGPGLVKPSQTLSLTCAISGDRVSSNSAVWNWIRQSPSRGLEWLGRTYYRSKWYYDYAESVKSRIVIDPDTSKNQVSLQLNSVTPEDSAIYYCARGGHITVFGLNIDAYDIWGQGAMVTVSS VL: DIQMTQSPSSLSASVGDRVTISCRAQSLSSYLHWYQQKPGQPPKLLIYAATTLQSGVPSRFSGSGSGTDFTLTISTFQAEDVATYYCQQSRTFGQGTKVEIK = 0.57
Antibody 3 (antibody, V domains shown) VH: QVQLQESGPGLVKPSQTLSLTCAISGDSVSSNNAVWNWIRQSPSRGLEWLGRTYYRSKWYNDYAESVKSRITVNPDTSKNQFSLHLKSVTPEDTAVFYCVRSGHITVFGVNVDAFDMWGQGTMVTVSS VL: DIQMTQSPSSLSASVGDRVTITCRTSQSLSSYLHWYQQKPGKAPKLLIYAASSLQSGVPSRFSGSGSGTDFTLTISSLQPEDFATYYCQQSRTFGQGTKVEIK = 0.75
Antibody 8 (antibody, V domains shown) VH: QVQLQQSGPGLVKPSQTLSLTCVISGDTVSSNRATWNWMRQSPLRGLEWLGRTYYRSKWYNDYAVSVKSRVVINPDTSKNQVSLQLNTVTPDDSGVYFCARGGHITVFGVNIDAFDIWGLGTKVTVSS VL: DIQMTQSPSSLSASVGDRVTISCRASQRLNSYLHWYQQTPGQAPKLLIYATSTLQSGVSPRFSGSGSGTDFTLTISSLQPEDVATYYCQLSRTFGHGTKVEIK = 3.83

Reported Neutralization IC50, H3-Vic75 ( Antibody 6 (antibody, V domains shown) VH: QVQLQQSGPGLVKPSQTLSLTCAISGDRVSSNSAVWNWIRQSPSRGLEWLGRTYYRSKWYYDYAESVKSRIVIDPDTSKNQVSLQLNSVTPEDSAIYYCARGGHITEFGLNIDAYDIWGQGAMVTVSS VL: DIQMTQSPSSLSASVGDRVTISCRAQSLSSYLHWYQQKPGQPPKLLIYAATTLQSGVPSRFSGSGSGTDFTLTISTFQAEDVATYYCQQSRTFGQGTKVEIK ) = 1.09
